# Study target: T1, hScrib/PDZ1 (AA 728-815) (human, UniProt Q14160 728-815)
# T1 construct: Scribble, human, PDZ1 domain, AA 728-815; In pGEX-6P-3 or pGIL-MBP; also called PDZ domain 1 of Scrib; source: E. coli BL21 (DE3) CodonPlus or pLysS, purified
# T1 sequence (Q14160 728-815): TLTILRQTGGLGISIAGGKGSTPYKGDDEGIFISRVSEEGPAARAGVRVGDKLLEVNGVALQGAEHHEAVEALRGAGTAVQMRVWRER
# Method: ITC; peptide (900-1100 µM) titrated into PDZ domain (75 µM); 25 mM Tris-HCl pH 8.0, 150 mM NaCl, 5 mM TCEP; 25 °C; 20 injections; one-site binding model
# Condition label: both partners purified
Readout kind: Kd (µM)
Numbers only; they are read as µM.

query: Form field: reported Kd of DPHSETAL (TMIGD1, human, the eight C-terminal residues with the PBM (SETAL), free C-terminal carboxyl; also called TMIGD1/WT; TMIGD1 PBM peptide; source: synthetic peptide (Genscript)) [C-terminally derived 8-mer human TMIGD1 peptide (DPHSETAL)]
result: 18.2
